All values here come from paper PMC9352680.

Molecular target: T1, PUF4 RNA-binding domain (Saccharomyces cerevisiae, UniProt P25339 537-888)
T1 sequence: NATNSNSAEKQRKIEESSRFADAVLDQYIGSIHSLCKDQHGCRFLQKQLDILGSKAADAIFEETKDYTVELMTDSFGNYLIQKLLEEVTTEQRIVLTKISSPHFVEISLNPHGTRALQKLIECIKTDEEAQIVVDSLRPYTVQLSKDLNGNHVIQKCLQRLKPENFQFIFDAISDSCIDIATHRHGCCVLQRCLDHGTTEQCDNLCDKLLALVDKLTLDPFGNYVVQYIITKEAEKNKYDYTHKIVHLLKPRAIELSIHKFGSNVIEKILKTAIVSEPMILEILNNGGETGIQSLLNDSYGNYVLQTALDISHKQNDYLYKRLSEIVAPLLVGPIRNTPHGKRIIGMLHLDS
Assay: Mg; RNA-MaP; 20 mM Na-HEPES pH 7.4, 30 mM KOAc, 0.75 mM MgCl2, 0.1% Tween-20, 5% glycerol, 0.1 mg/mL BSA, 2 mM DTT; 25 C; 0.0125-409.6 nM protein
Conditions: tags: N-His6-TEV cleaved; C-SNAP kept, Cy3B-labelled; label: tethered on chip by stalled RNA polymerase
# Kd listing for each entry below
Just the number please, in nM, no unit attached.

1. UCUCUUUUUAUAUAUUACCUCUCUU (ssRNA) [Id_ii_S1_P4E.3_K4.2_C4.2_[C-2T]_H4.2_A4.1_F4.1_T4.2_[G10C]_[T11C]]; 26.2

Ask: Consider the binder shown here: Ic_S4_P4E.1_K4.1_C4.1_H4.1_A4.1_[T5G]_[A6T]_[T7G]_F4.1_[T8C]_[A9T]_T4.1 (ssRNA) RNA: UUUGACAACUGAUCGUUCUUUCUUGUAGUGCUUUCUUUCUCGAUCAGUUGUCUUU What is its recorded Kd?
Result: 467

Ask: Need Kd of UCUCUUUGUAAUCACGUCUCUU (ssRNA) [Ic_S1_P5E.1_K5.1_C5.1_H5.1_A5.1_[T5A]_[A7C]_F5.1_[T8A]_[T9C]_[A10G]_T5.1] , thanks.
Result: 1250

Ask: Data request, read-out Kd, for UCUCUUUGUACGUAUUCUCUU (ssRNA) [Ic_S1_P4E.1_K4.1_C4.1_H4.1_A4.1_[T5C]_[A6G]_F4.1_[T8A]_[A9T]_T4.1]
Result: 96.3
